Biological target: non-lysosomal-β-glucocerebrosidase (Homo sapiens, UniProt Q9HCG7)
Construct: whole cell extracts of MCF7 (a human breast carcinoma cell line) was used as the source of the enzyme; endogenous in cells; host or cells: MCF7 whole cell extract
Sequence (Q9HCG7 1-927): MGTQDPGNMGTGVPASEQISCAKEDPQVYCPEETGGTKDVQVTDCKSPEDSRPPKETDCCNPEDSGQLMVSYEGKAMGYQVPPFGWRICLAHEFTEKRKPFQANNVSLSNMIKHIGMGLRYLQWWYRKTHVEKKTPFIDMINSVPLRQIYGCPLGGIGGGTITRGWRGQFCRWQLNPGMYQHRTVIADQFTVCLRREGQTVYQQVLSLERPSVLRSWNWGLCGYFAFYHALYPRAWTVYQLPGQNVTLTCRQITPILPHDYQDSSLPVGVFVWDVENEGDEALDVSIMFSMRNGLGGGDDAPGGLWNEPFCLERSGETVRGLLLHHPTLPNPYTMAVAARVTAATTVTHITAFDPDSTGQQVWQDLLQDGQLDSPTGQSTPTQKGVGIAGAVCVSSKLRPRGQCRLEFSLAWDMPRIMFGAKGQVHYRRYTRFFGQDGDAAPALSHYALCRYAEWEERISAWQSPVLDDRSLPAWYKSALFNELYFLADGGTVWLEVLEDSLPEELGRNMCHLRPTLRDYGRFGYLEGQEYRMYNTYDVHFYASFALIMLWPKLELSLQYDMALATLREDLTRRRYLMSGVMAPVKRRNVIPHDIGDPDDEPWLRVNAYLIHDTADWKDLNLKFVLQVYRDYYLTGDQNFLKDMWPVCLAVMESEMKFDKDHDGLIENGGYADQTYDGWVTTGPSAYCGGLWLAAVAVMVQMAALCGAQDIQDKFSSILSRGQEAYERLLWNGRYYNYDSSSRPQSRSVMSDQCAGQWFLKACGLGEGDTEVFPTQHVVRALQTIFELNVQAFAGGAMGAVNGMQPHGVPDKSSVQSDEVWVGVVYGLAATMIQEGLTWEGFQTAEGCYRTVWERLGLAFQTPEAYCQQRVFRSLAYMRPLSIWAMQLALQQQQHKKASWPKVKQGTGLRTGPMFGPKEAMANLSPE
Assay: Inhibition of non-lysosomal-β-glucocerebrosidase
Assay type: biochemical
Details: whole cell extracts of MCF7 as enzyme source; 5 mM 4-MU β-glucoside; pH 5.8
property: IC50 (µM)
Numbers only, in µM.

Quick one: IC50 for OC[C@@H]1[C@H](O)[C@H](O)[C@@H](O)CN1Cc1ccc(OCc2ccccc2)cc1 [Example 1] ? 10
